Please provide measured pKI Compound A for the entries that follow.
Molecular target: novel receptor obtainable from rat forebrain tissue ([3H]-Compound A binding site)
Assay: Radioligand binding assay, displacement of [3H]-Compound A from rat forebrain tissue
Settings: competition with [3H]-Compound A, Table
Hey, just send me the number, nothing else.

### Prompt Output measured pKI Compound A for this item: COc1ccc(C(=O)Nc2ccc3c(c2)CN(C)CC3(C)C)cc1C(F)(F)F.Cl
### Response 8.5

### Prompt Provide only the value of recorded pKI Compound A for CC(C)c1ccc(C(=O)Nc2ccc3c(c2)CN(C)CC3(C)C)cc1C#N
### Response 8.0

### Prompt Give the reported value of pKI Compound A for this record: CCc1ccc(C(=O)Nc2ccc3c(c2)CN(C)CC3(C)C)cc1Br
### Response 8.3

### Prompt Supply recorded pKI Compound A for CCOc1ccc(C(=O)Nc2ccc3c(c2)CN(C)CC3(C)C)cc1Br here.
### Response 8.2

### Prompt Give pKI Compound A for CC(C)Oc1ccc(C(=O)Nc2ccc3c(c2)CN(C)CC3(C)C)cc1Cl
### Response 7.9

// provenance: patent US6277861A
